Measured pIC50, listed per entry for reference.
systemTested: T1, cynomolgus CX3CR1 (cynomolgus monkey (Macaca fascicularis), UniProt P49238 1-355 (human entry))
T1 construct: Overexpressed on CHO K1 cells; also called cyno CX3CR1; cyCX3CR1
T1 chain: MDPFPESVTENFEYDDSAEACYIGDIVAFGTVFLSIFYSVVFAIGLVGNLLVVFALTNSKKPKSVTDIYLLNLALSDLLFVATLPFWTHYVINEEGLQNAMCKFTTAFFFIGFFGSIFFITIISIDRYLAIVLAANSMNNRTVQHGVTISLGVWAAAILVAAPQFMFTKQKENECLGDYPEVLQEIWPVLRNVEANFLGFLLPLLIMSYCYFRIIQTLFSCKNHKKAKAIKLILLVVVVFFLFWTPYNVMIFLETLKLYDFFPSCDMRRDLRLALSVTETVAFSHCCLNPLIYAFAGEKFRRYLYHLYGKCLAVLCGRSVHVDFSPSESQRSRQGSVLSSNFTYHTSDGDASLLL
experimentSummary: competition flow cytometry vs soluble huCX3CL1-AF647 on CHO K1 cyCX3CR1 cells, 30 uM HSA
Please note pIC50 is a logarithmic value: minus log10 of concentration in mol/L. Answer with that number alone.

Example binders with recorded pIC50:
1) A041600042 (VHH, Trivalent ISVD construct (two anti-CX3CR1 ISVDs, one anti-albumin ISVD), C-terminal alanine included in the entry; also called 66B02_SO (E1D)-20GS-66B02_SO-20GS-ALB23002-A) DVQLVESGGGSVQPGGSLRLSCAASGSIFSSTAMAWYRQAPGKRRDLVAAINTVGVTKYADSVKGRFTISRDNAKNTVYLQMNSLRPEDTALYYCTSDPRRGWDTRYWGQGTLVTVSSGGGGSGGGGSGGGGSGGGGSEVQLVESGGGSVQPGGSLRLSCAASGSIFSSTAMAWYRQAPGKRRDLVAAINTVGVTKYADSVKGRFTISRDNAKNTVYLQMNSLRPEDTALYYCTSDPRRGWDTRYWGQGTLVTVSSGGGGSGGGGSGGGGSGGGGSEVQLVESGGGVVQPGGSLRLSCAASGFTFRSFGMSWVRQAPGKGPEWVSSISGSGSDTLYADSVKGRFTISRDNSKNTLYLQMNSLRPEDTALYYCTIGGSLSRSSQGTLVTVSSA | 9.17
2) A041600031 (VHH, Trivalent ISVD construct (two anti-CX3CR1 ISVDs, one anti-albumin ISVD), C-terminal alanine included in the entry; also called 66B02_SO (E1D)-9GS-ALB23002-9GS-54A12_SO-A) DVQLVESGGGSVQPGGSLRLSCAASGSIFSSTAMAWYRQAPGKRRDLVAAINTVGVTKYADSVKGRFTISRDNAKNTVYLQMNSLRPEDTALYYCTSDPRRGWDTRYWGQGTLVTVSSGGGGSGGGSEVQLVESGGGVVQPGGSLRLSCAASGFTFRSFGMSWVRQAPGKGPEWVSSISGSGSDTLYADSVKGRFTISRDNSKNTLYLQMNSLRPEDTALYYCTIGGSLSRSSQGTLVTVSSGGGGSGGGSEVQLVESGGGSVQPGGSLRLSCAASGSIFSSTAMAWYRQAPGKQRDLVAVISTVGITKYADSVKGRFTISRDNAKNTVYLQMNSLRPEDTALYYCTSDARRGWDTRYWGQGTLVTVSSA | 8.92
3) A041600041 (VHH, Trivalent ISVD construct (two anti-CX3CR1 ISVDs, one anti-albumin ISVD), C-terminal alanine included in the entry; also called 54A12_SO (E1D)-9GS-66B02_SO-9GS-ALB23002-A) DVQLVESGGGSVQPGGSLRLSCAASGSIFSSTAMAWYRQAPGKQRDLVAVISTVGITKYADSVKGRFTISRDNAKNTVYLQMNSLRPEDTALYYCTSDARRGWDTRYWGQGTLVTVSSGGGGSGGGSEVQLVESGGGSVQPGGSLRLSCAASGSIFSSTAMAWYRQAPGKRRDLVAAINTVGVTKYADSVKGRFTISRDNAKNTVYLQMNSLRPEDTALYYCTSDPRRGWDTRYWGQGTLVTVSSGGGGSGGGSEVQLVESGGGVVQPGGSLRLSCAASGFTFRSFGMSWVRQAPGKGPEWVSSISGSGSDTLYADSVKGRFTISRDNSKNTLYLQMNSLRPEDTALYYCTIGGSLSRSSQGTLVTVSSA | 8.74

Ask | Record request: pIC50 value, item A041600040 (VHH, Trivalent ISVD construct (two anti-CX3CR1 ISVDs, one anti-albumin ISVD), C-terminal alanine included in the entry; also called 66B02_SO (E1D)-9GS-54A12_SO-9GS-ALB23002-A) DVQLVESGGGSVQPGGSLRLSCAASGSIFSSTAMAWYRQAPGKRRDLVAAINTVGVTKYADSVKGRFTISRDNAKNTVYLQMNSLRPEDTALYYCTSDPRRGWDTRYWGQGTLVTVSSGGGGSGGGSEVQLVESGGGSVQPGGSLRLSCAASGSIFSSTAMAWYRQAPGKQRDLVAVISTVGITKYADSVKGRFTISRDNAKNTVYLQMNSLRPEDTALYYCTSDARRGWDTRYWGQGTLVTVSSGGGGSGGGSEVQLVESGGGVVQPGGSLRLSCAASGFTFRSFGMSWVRQAPGKGPEWVSSISGSGSDTLYADSVKGRFTISRDNSKNTLYLQMNSLRPEDTALYYCTIGGSLSRSSQGTLVTVSSA
Reply | 9.21

Source listed as patent US20240117038A1.
